- experimentNotes: self-splicing fitness, log relative to wild type (ln ratio); higher = more splicing; Tetrahymena group I intron in knt gene, E. coli kanamycin selection, DiMSum; sequences stand for … in CUCUCU…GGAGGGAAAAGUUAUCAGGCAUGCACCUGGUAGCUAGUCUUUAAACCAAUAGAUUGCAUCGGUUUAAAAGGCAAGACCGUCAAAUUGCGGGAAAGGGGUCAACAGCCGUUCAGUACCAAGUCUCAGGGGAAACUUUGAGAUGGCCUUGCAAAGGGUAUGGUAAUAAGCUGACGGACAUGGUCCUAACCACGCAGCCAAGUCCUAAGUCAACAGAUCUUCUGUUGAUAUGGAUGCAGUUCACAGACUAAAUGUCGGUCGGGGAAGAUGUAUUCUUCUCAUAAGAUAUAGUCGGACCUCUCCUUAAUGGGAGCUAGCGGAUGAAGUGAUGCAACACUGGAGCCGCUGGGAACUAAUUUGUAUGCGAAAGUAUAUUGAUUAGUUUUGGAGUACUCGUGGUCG;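 further: selection with 25 µg/mL kanamycin versus none on LB agar overnight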
- assayContext: 37 °C
Returns one of Fulfilled or Not fulfilled; Fulfilled when self-splicing fitness (ln) is >= -0.4.

polymerSequence: AUCUAGCAAUAUUACGGCGG
classification: Not fulfilled
//
polymerSequence: GAAGAGCAAUAUUACGACGG
classification: Not fulfilled
//
polymerSequence: GAGUAGCAAUAUUACGACGU
classification: Fulfilled
//
polymerSequence: CGACAGCAAUAUUACGACCG
classification: Fulfilled
//
polymerSequence: UGGAAGCAAUAUUACGUGCC
classification: Fulfilled
//
polymerSequence: UCCGAGCAAUAUUACGCGGU
classification: Not fulfilled
